- Target entity: PD-1/PD-L1 (Homo sapiens)
- Sequence (Q9NZQ7 19-238 limits assumed): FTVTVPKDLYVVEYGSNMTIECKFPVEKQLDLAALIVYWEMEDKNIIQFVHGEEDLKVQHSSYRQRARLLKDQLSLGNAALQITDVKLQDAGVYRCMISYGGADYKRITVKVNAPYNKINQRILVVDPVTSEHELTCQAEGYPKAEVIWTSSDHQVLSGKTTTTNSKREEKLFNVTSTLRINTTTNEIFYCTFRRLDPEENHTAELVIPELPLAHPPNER
- Protocol description: PD-1/PD-L1 biochemical protein-protein interaction assay (ALPHA)
- Recorded conditions: 0.3 nM His tagged PD-L1, 2.5 nM biotinylated Fc-PD-1, 60 minutes at 25° C., read-out: IC50 PD-L1-PD-1 Alpha IC50-mono PD-L1-fcP-D1
Parameter: pIC50
A value of pIC50 is the negative decimal logarithm of a concentration given in moles per litre.

State the recorded pIC50 for this entry: Cc1c(COc2cc(OCc3cncc(C#N)c3)c(CNC[C@@H](O)CC(=O)O)cc2Cl)cccc1-c1cccc(-c2nc3c(C)c(CNC[C@@H](O)CC(=O)O)ccc3s2)c1C [Example 395]
9.66

State the recorded pIC50 for this entry: COc1cc(-c2cccc(-c3cccc(COc4cc(OCc5cncc(C#N)c5)c(CNC[C@@H](O)CC(=O)O)cc4Cl)c3C)c2C)ccc1C1=NCCN1 [Example 502]
10.09

State the recorded pIC50 for this entry: COc1nc(O[C@H]2CCc3c(-c4cccc5c4CC[C@@H]5Oc4nc(OCc5cncc(C#N)c5)c(CNC[C@@H](O)CC(=O)O)cc4Br)cccc32)c(Br)cc1CNC[C@@H](O)CC(=O)O [Example 679]
10.24

State the recorded pIC50 for this entry: CS(=O)(=O)c1cncc(COc2nc(OCc3cccc(-c4cccc(-c5ccc(OCCNCCO)cc5)c4Cl)c3Cl)c(Cl)cc2CNC[C@@H](O)CC(=O)O)c1 [Example 485]
9.49

State the recorded pIC50 for this entry: Cc1c(COc2cc(OCc3cncc(C#N)c3)c(CNC[C@@H](O)CC(=O)O)cc2Br)cccc1-c1cccc(COc2cc(OCc3cncc(C#N)c3)c(CN3C[C@@H](O)CC3=O)cc2Br)c1C [Example 38]
8.55

###

- Target entity: PD-1/PD-L1 interaction (Homo sapiens, UniProt Q9NZQ7)
- Construct: expressed in transfected cells; host or cells: CHO cells (aAPC-PD-L1) co-cultured with Jurkat cells overexpressing PD-1 and an NFAT-luciferase reporter
- Protocol description: PD-1/PD-L1 NFAT reporter co-culture assay
- Assay type: cell-based
- Recorded conditions: Jurkat PD-1 NFAT-luciferase cells co-cultured with aAPC-PD-L1 CHO cells, 6 hrs at 37° C.; read-out: EC50 NFAT Luciferase
Parameter: pEC50
A value of pEC50 is the negative decimal logarithm of a concentration given in moles per litre.

State the recorded pEC50 for this entry: `Cc1c(COc2ccc(CNC[C@@H](O)CC(=O)O)c(-c3cncc(C#N)c3)c2)cccc1-c1cccc(COc2ccc(CNC[C@@H](O)CC(=O)O)c(-c3cncc(C#N)c3)c2)c1C`
4.42

State the recorded pEC50 for this entry: `COc1nc(O[C@H]2CCc3c(-c4cccc(-c5cnc(CN[C@@H]6CCC[C@@H]6O)c(OC)n5)c4Cl)cccc32)c(Cl)cc1CN[C@@](C)(CO)C(=O)O`
7.24

State the recorded pEC50 for this entry: `Cc1c(COc2nc(OCc3cncc(C#N)c3)c(CNCCO)cc2Cl)cccc1-c1cccc(COc2nc(OCc3cncc(C#N)c3)c(CNCCO)cc2Cl)c1C`
6.53

###

- Target entity: interaction between the recombinant extracellular domain (ECD) of PD-1 and native cell-bound PD-L1 (Homo sapiens)
- Sequence (Q9NZQ7 19-290): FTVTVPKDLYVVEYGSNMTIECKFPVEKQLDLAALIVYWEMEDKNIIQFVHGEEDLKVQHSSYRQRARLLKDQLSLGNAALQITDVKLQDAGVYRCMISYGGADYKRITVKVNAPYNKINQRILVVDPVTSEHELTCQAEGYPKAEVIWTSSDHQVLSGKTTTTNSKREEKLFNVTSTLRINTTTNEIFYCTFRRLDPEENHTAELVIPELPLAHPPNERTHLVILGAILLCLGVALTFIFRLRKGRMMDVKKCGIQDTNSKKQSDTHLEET
- Protocol description: CHO/PD-L1 cell capture assay
- Recorded conditions: CHO cells overexpressing PD-L1, pre-incubated 1 hr with compound, captured on biotinylated Fc-PD-1 coated plates, 75 min at room temperature
pEC50: −log10 of the molar value.
Decision: pEC50 >= 7 yields True, all other cases yield False.

Does the molecule `Cc1c(COc2nc(OCCC(=O)N(C)C)c(CNC[C@@H](O)CC(=O)O)cc2Br)cccc1-c1cccc(COc2nc(OCCC(=O)N(C)C)c(CNC[C@@H](O)CC(=O)O)cc2Br)c1C` have recorded pEC50 that is 7 or more?
False

Does the molecule `Cc1c(COc2nc(OCc3cncc(C#N)c3)c(CNCCO)cc2Cl)cccc1-c1cccc(COc2nc(OCc3cncc(C#N)c3)c(CNCCO)cc2Cl)c1C` have recorded pEC50 that is 7 or more?
False

Does the molecule `COCCCOc1nc(OCc2cccc(-c3cccc(COc4nc(OCCCOC)c(CNC[C@@H](O)CC(=O)O)cc4Br)c3C)c2C)c(Br)cc1CNC[C@@H](O)CC(=O)O` have recorded pEC50 that is 7 or more?
False

Does the molecule `COc1cc(OCc2cccc(-c3cccc(COc4cc(OC)c(CNC[C@@H](O)CC(=O)O)c(OCc5cncc(C#N)c5)c4)c3C)c2C)cc(OCc2cncc(C#N)c2)c1CNC[C@@H](O)CC(=O)O` have recorded pEC50 that is 7 or more?
False

Does the molecule `Cc1c(COc2nc(OCc3cc(C#N)cc(C#N)c3)c(CNC[C@@H](O)CC(=O)O)cc2Cl)cccc1-c1cccc(COc2nc(OCc3cc(C#N)cc(C#N)c3)c(CNC[C@@H](O)CC(=O)O)cc2Cl)c1C` have recorded pEC50 that is 7 or more?
False

Does the molecule `Cc1c(COc2nc(OCCCCC#N)c(CNC[C@@H](O)CC(=O)O)cc2Br)cccc1-c1cccc(COc2nc(OCCCCC#N)c(CNC[C@@H](O)CC(=O)O)cc2Br)c1C` have recorded pEC50 that is 7 or more?
False

Does the molecule `COc1nc(OCc2cccc(-c3cccc(COc4nc(OC)c(CNC[C@H](O)CC(=O)O)cc4C4CC4)c3C)c2C)c(C2CC2)cc1CNC[C@H](O)CC(=O)O` have recorded pEC50 that is 7 or more?
False

Does the molecule `COc1nc(OCc2cccc(-c3cccc(COc4ccc(CN[C@@](C)(CO)C(=O)O)c(OC)n4)c3C)c2C)ccc1CN[C@@](C)(CO)C(=O)O` have recorded pEC50 that is 7 or more?
False

Does the molecule `Cc1c(COc2cc(OCc3cncc(C#N)c3)c(CN[C@@H](C)C(=O)O)cc2Cl)cccc1-c1cccc(-c2ccc(OCCN[C@@H](C)C(=O)O)c([N+](=O)[O-])c2)c1C` have recorded pEC50 that is 7 or more?
True

Does the molecule `COc1nc(O[C@H]2CCc3c(-c4cccc5c4CC[C@@H]5Oc4nc(OC)c(CNCC(=O)O)cc4Cl)cccc32)ccc1CNCC(=O)O` have recorded pEC50 that is 7 or more?
False

Does the molecule `Cc1c(COc2nc(OCC(N)=O)c(CNC[C@@H](O)CC(=O)O)cc2Br)cccc1-c1cccc(COc2nc(OCC(N)=O)c(CNC[C@@H](O)CC(=O)O)cc2Br)c1C` have recorded pEC50 that is 7 or more?
False

Does the molecule `Cc1c(COc2nc(OC[C@H]3CCC(=O)N3)c(CNCC(=O)O)cc2Br)cccc1-c1cccc(COc2nc(OC[C@H]3CCC(=O)N3)c(CNCC(=O)O)cc2Br)c1C` have recorded pEC50 that is 7 or more?
False

Does the molecule `Cc1c(COc2cc(OCc3cncc(C#N)c3)c(CNC[C@@H](O)CC(=O)O)cc2Cl)cccc1-c1cccc(-c2ccc(OCCNC[C@@H](O)CC(=O)O)cc2F)c1C` have recorded pEC50 that is 7 or more?
True

Does the molecule `COc1nc(O[C@H]2CCc3c(-c4cccc5c4CC[C@@H]5Oc4ccc(CNC[C@@H](O)CC(=O)O)c(OC)n4)cccc32)ccc1CNC[C@@H](O)CC(=O)O` have recorded pEC50 that is 7 or more?
False

Does the molecule `Cc1c(COc2cc(OCc3cncc(C#N)c3)c(CNC[C@@H](O)CC(=O)O)cc2Cl)cccc1-c1cccc(-c2ccc(OCCNC[C@@H](O)CC(=O)O)cc2)c1C` have recorded pEC50 that is 7 or more?
True

Does the molecule `COc1nc(OCc2cccc(-c3cccc(COc4nc(OC)c(C[N+](C)(C)CC(=O)O)cc4Cl)c3C)c2C)c(Cl)cc1C[N+](C)(C)CC(=O)O` have recorded pEC50 that is 7 or more?
False

Does the molecule `Cc1c(COc2cc(OCc3cncc(C#N)c3)c(CNC[C@@H](O)CC(=O)O)cc2Cl)cccc1-c1cccc(-c2ccc(OCCNC[C@@H](O)CC(=O)O)cn2)c1C` have recorded pEC50 that is 7 or more?
True
